Values compiled from patent US11236084B2.

biological target: recombinant human NF-kappaB-inducing kinase (NIK/MAP3K14) (Homo sapiens, UniProt Q99558); assay: Biological Assay B: inhibition of auto-phosphorylation of recombinant human NIK/MAP3K14 (AlphaScreen), performed at 2 locations; assay type: biochemical; conditions: location 2; AlphaScreen auto-phosphorylation; averaged values; read-out: Assay B location 2 IC50
Sequence (Q99558 whole entry): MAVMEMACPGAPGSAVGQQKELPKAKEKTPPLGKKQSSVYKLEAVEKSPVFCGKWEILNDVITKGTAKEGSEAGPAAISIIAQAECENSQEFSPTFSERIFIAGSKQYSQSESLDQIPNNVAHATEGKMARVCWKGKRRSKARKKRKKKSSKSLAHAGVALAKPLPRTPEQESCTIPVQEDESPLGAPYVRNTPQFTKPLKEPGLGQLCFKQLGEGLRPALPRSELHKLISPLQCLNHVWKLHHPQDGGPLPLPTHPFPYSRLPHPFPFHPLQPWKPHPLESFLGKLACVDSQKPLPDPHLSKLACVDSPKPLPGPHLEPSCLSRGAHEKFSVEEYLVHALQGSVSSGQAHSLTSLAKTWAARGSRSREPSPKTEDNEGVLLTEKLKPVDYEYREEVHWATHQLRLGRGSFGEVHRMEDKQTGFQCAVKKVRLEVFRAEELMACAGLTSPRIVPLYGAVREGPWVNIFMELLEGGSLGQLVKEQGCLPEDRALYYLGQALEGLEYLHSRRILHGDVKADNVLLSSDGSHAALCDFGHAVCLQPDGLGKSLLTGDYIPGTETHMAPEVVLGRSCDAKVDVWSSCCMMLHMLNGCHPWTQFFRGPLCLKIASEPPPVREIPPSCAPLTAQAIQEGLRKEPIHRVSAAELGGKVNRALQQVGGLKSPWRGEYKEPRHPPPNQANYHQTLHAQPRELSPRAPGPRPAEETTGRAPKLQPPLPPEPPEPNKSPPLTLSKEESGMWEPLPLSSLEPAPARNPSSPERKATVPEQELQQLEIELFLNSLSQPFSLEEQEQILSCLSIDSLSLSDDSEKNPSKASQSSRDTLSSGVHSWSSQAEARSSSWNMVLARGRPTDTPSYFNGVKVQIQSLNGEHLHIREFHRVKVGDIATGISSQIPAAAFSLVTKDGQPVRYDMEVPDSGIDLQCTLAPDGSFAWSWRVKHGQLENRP
MEASURED PROPERTY: IC50 (nM)

[
  {
    "MOLECULE": "COc1c(Nc2nccc(-c3cnc4c(c3)C(C)(CO)CN4)n2)cc(Cl)cc1N1CCOCC1 (stereo not shown) [Compound 307]",
    "READOUT UNITS": "nM",
    "IC50": 3.1
  },
  {
    "MOLECULE": "COc1cc(CNC(C)=O)c(C)c(Nc2nccc(-c3cnc4c(c3)C(C)(CO)CN4)n2)c1 (stereo not shown) [Compound 84]",
    "READOUT UNITS": "nM",
    "IC50": 4.8
  },
  {
    "MOLECULE": "COc1cc(Nc2nccc(-c3cnc4c(c3)C(C)(CO)CN4)n2)c(C)c(C(=O)NC2CN(C)C2)c1 (stereo not shown) [Compound 90]",
    "READOUT UNITS": "nM",
    "IC50": 5.1
  }
]

A: Cc1cc(N2CC3(CCOCC3)C2)c(F)cc1Nc1nccc(-c2cnc3c(c2)C(C)(CO)CN3)n1 (stereo not shown) [Compound 281]
B: COc1cc(C(=O)N2CCCC2)ccc1Nc1nccc(-c2cnc3c(c2)C(C)(CO)CN3)n1 (stereo not shown) [Compound 138]
C: [2H]C([2H])([2H])c1ccccc1Nc1nccc(-c2cnc3c(c2)C(C)(CO)CN3)n1 (stereo not shown) [Compound 234]
D: COc1cc(N2CC3(CCOCC3)C2)c(F)cc1Nc1nccc(-c2cnc3c(c2)C(C)(CO)CN3)n1 (single isomer, unassigned) [Compound 7R]
## Task Please list these molecules in decreasing order of IC50. Form entry: ranked labels (order as requested).
## Result C, D, B, A
(C: 38.9 nM, D: 19.1 nM, B: 6.3 nM, A: 3 nM)
